- Test system: SK-MEL-2 melanoma
- Measurement description: NCI tumour cell line growth inhibition, 48 h
Endpoint name: TGI (µM)
Respond numerically; units are µM and should not be typed.

Molecule	Assayed system	Endpoint name	Reported measurement
N#Cc1cc(S(=O)(=O)Nc2nc3ccccc3o2)c(SCc2ccccc2)cc1Cl	SK-MEL-2 melanoma	TGI	53.4
O=C([C@H](O)[C@@H](O)c1cccc(Cl)c1)C12CC3CC(CC(C3)C1)C2	SK-MEL-2 melanoma	TGI	4.24
CCOC(=O)C1=C(C)NC(c2ccco2)=C(C#N)C1c1cccc([N+](=O)[O-])c1 (stereo not given)	SK-MEL-2 melanoma	TGI	24.3
Clc1ccc(/C(=C/c2ccccc2)Cn2ccnc2)cc1	SK-MEL-2 melanoma	TGI	40.8
C[CH2][Sn]([CH2]C)([O]C(=O)c1ccc(F)cc1)[O]C(=O)c1ccc(F)cc1	SK-MEL-2 melanoma	TGI	17.5

[ask] I'd like to know its TGI. The molecule in question is CN(C)CCNCCCNc1c2ccccc2nc2cccc([N+](=O)[O-])c12
[reply] 0.0523

[ask] Name the recorded TGI for O=[N+]([O-])c1ccc(-c2csc(=[N+]3CCCCC3)s2)cc1 .
[reply] 60.2

[ask] So what's the measured TGI for this one? CCN(CC)CCCCNc1c2ccc(Cl)cc2nc2ccc(OC)cc12
[reply] 3.31

[ask] Fill in: TGI of O=C(/C=C/C12c3ccccc3C(c3ccccc31)C1C(=O)NC(=O)C12)c1ccccc1 (stereo not given) is ___
[reply] 4.62

[ask] Request the reported TGI associated with CS(=O)(=O)N(c1cc(-c2ccc3ncnc(Nc4ccc(F)c(Cl)c4)c3c2)cnc1Cl)S(C)(=O)=O
[reply] 4.01

====

Entries annotated with measured TGI
- Tested on: KM20L2 colon
- Measurement description: NCI tumour cell line growth inhibition, 48 h

Solved cases below.
Molecule	Reported measurement
c1ccc(OC2=NC3=S(S2)SC(Oc2ccccc2)=N3)cc1	45 µM
CCOC(=O)CN1C(=O)c2cc([N+](=O)[O-])cc3cc([N+](=O)[O-])cc(c23)C1=O	> 100 µM
COc1cc(/C=N/N=C(\N)NO)c([N+](=O)[O-])cc1OC	> 100 µM
CC(C)(C)N=NC(C)(C)N=C=O	> 100 µM
O=C1Nc2cc(F)ccc2C1=O	> 100 µM

[ask] # lookup: TGI of COc1ccc(OC(C)C(=O)O)c2c(=O)ccccc12 (stereo not drawn)
[reply] > 100 µM

[ask] TGI for COc1cc2cnc3c4cc(OCc5ccccc5)ccc4ccc3c2cc1OC ?
[reply] > 100 µM

[ask] What does the record list as TGI for CCCn1cc2c3c(cccc31)C1C=C(C)CN(C)C1C2 (stereo not drawn) ?
[reply] 38.8 µM

====

- System: SK-MEL-28 melanoma
- Measurement description: NCI tumour cell line growth inhibition, 48 h; in the data active = GI50 below about 0.43 µM; inactive = the rest
# valid calls are active, inactive; nothing else

Field: example entries. Status: answers known.
Compound	Assayed system	Group label
O=C(/C=C/C12c3ccccc3C(c3ccccc31)C1C(=O)NC(=O)C12)c1ccccc1 (stereo not given)	SK-MEL-28 melanoma	inactive
C1=CCCC=CCC1.C[PH+](C)C.C[PH+](C)C.C[PH+](C)C.[Cl-].[Ir]	SK-MEL-28 melanoma	inactive
CS(=O)(=O)N(c1cc(-c2ccc3ncnc(Nc4ccc(F)c(Cl)c4)c3c2)cnc1Cl)S(C)(=O)=O	SK-MEL-28 melanoma	inactive
O=c1[nH]c(=O)n(C2CC(O)C(CO)O2)cc1C(F)(F)F (stereo not given)	SK-MEL-28 melanoma	inactive
N#Cc1cccc(C2C3=C(COC3=O)N(CCO)c3cc4c(cc32)OCO4)c1 (stereo not given)	SK-MEL-28 melanoma	inactive

[ask] What call does the record list for N#CC1=C(N)NC(=O)NC12Nc1ccccc1N2 ?
[reply] inactive

[ask] Record request — test call for CC[PH+](CC)CC.[Cl][Au]
[reply] inactive

[ask] Write down the call the test reported for this compound. Item: O=C1c2cc3c(cc2-c2c1c1ccc(Cl)cc1c(=O)n2CCCn1ccnc1)OCO3
[reply] active

[ask] // return assay outcome for CCOC(=O)C1=C(C)NC(c2ccco2)=C(C#N)C1c1cccc([N+](=O)[O-])c1 (stereo not given)
[reply] active

[ask] Would you mind telling me which call this test gave O=P(O)(O)OCC1OC(n2cnc3c(NCc4ccccc4)ncnc32)C(O)C1O (stereo not given) ?
[reply] inactive

====

- Test system: COLO 205 colon
- Measurement description: NCI tumour cell line growth inhibition, 48 h
Endpoint name: TGI

Compound	Reported measurement
COc1c(N2CCN(CN3C(=O)C(=Nc4ccc(S(=O)(=O)Nc5ncccn5)cc4)c4cc(Cl)ccc43)C(C)C2)c(F)cc2c(=O)c(C(=O)O)cn(C3CC3)c12 (centres undefined)	> 50 µM
CC(=O)[CH-]C(=O)c1ccccc1.CC(=O)[CH-]C(=O)c1ccccc1.[O-]c1ccc2c(c1)OCO2.[O-]c1ccc2c(c1)OCO2.[Ti+4]	> 100 µM

[ask] Form field: reported TGI of CC1(C)C=C(/C=C2/N(S(=O)(=O)C(F)(F)F)C(/C=C3/N(S(=O)(=O)C(F)(F)F)C(C)(C#N)CC3(C)C)=CC2(C)C)N=C1/C=C1/CC(C)(C)C(=O)N1 (centres undefined)
[reply] 39.2 µM

[ask] So what's the measured TGI for this one? Nc1c(N2CCOCC2)c(=O)nc2[nH]/c(=C\c3ccccc3O)c(=O)n12
[reply] > 100 µM

[ask] GET /values?readout=TGI&item= CC(=O)[O-].N.N.N.N.[Co+3].[O-][Cl+3]([O-])([O-])[O-].[OH3+]
[reply] > 100 µM

====

- System: 786-0 renal
- Measurement description: NCI tumour cell line growth inhibition, 48 h; in the data active = GI50 below about 0.43 µM; inactive = the rest
# valid calls are T = active, F = inactive; nothing else

Compound	Group label
CCC1=C(CC2NCCc3ccccc32)CC2c3cc(OC)c(OC)cc3CCN2C1 (stereo not drawn)	F
C=C1CCC2C3(C)COC(c4ccccc4Cl)OC3CCC2(C)C1/C=C/C1=CCOC1=O (stereo not drawn)	F
COc1cc2nccc(Oc3ccc(NC(=O)c4cn(C(C)C)c(=O)n(-c5ccc(F)cc5)c4=O)cc3F)c2cc1OC	F

[ask] Outcome logged for CC(C)(C)OC(=O)N[C@@H](Cc1ccccc1)C(=O)N(Cc1ccccc1)C1(C(=O)NCc2ccccc2)CCN(Cc2ccccc2)CC1 in this assay:
[reply] F

[ask] Look up the recorded call for C1=CCCC=CCC1.C[PH+](C)C.C[PH+](C)C.C[PH+](C)C.[Cl-].[Ir] in this test.
[reply] F

[ask] Query: recorded result category for COC(=O)N[C@H]1CCc2c(Cl)c(OC)c(OC)c(OC)c2-c2ccc(SC)c(=O)cc21 in this test
[reply] T

[ask] Which result was noted for this compound in the test: CCN(Cc1c(F)cccc1Cl)c1ccc(CO)c(Cl)c1
[reply] F

[ask] Outcome logged for N#CC1=C(N)NC(=O)NC12Nc1ccccc1N2 in this assay:
[reply] F

====

- Tested on: SK-OV-3 ovarian
- Measurement description: NCI tumour cell line growth inhibition, 48 h
Readings of GI50 for the listed compounds

Study these solved cases before continuing.
Compound string	Endpoint name	Reported measurement
CCn1c2ccccc2c2cc(C(=O)c3ccc(C)c4ccccc34)ccc21	GI50	553 nM
CS(=O)(=O)N(c1cc(-c2ccc3ncnc(Nc4ccc(F)c(Cl)c4)c3c2)cnc1Cl)S(C)(=O)=O	GI50	600 nM

[ask] Could you tell me which GI50 is on file for CC(=O)[O-].N.N.N.N.[Co+3].[O-][Cl+3]([O-])([O-])[O-].[OH3+] ?
[reply] > 100000 nM

====

- System: 786-0 renal
- Measurement description: NCI tumour cell line growth inhibition, 48 h
Endpoint name: TGI

Compound string	TGI
C[As+](C)(c1ccc(Br)c([N+](=O)[O-])c1)c1ccc(Br)c([N+](=O)[O-])c1.O=[N+]([O-])O	> 100 µM
COc1cc2c3c(n(CCCNCCCN)c(=O)c2cc1OC)-c1cc2c(cc1C3=O)OCO2	14.2 µM

Next:
[ask] Notebook: pull reported TGI for 786-0 renal, entry O=c1c2cc3ccccc3n2c(=O)c2cc3ccccc3n12
[reply] > 100 µM

====

- Tested on: UO-31 renal
- Measurement description: NCI tumour cell line growth inhibition, 48 h; in the data active = GI50 below about 0.43 µM; inactive = the rest
In this exercise, the only acceptable responses are active, inactive

Before answering, review these 6 worked examples.
Compound	Group label
CC1(C)CCC[C@]2(C)c3ccccc3C(=O)CC12 (stereo not given in full)	inactive
COc1ccc2[nH]c(C(=O)OCc3ccc4c(Cl)cc(Cl)c(O)c4n3)cc2c1	active
COC(=O)N[C@H]1CCc2c(Cl)c(OC)c(OC)c(OC)c2-c2ccc(SC)c(=O)cc21	active
CCOC(=O)C1=C(C)NC(c2ccco2)=C(C#N)C1c1cccc([N+](=O)[O-])c1 (stereo not given)	active
COc1c(N2CCN(CN3C(=O)C(=Nc4ccc(S(=O)(=O)Nc5ncccn5)cc4)c4cc(Cl)ccc43)C(C)C2)c(F)cc2c(=O)c(C(=O)O)cn(C3CC3)c12 (stereo not given)	inactive
COC(=O)[C@H](Cc1cn(C)cn1)NC(=O)[C@H](Cc1ccccc1)NC(=O)Nc1cc(C(F)(F)F)cc(C(F)(F)F)c1	inactive

[ask] Could you kindly confirm the outcome this assay logged for N#Cc1cccc(C2C3=C(COC3=O)N(CCO)c3cc4c(cc32)OCO4)c1 (stereo not given) ?
[reply] inactive

[ask] Could you kindly confirm the outcome this assay logged for CCN(CC)CCCCNc1c2ccc(Cl)cc2nc2ccc(OC)cc12 ?
[reply] inactive

[ask] What call does the record list for Cc1ccc(C(=O)NC2CC2)cc1-c1ccc2[nH]ncc2c1 ?
[reply] inactive

[ask] What is the recorded call for this compound in the test? CC[PH+](CC)CC.[Cl][Au]
[reply] inactive
